These measurements were taken from PubChem BioAssay (NCI).

# Test system: HCT-15 colon
# assay.details: NCI tumour cell line growth inhibition, 48 h
readout.label: TGI

C#CCN1C(=O)CN2C(Cl)(Cl)C2(c2ccccc2)c2cc(Cl)ccc21 (centres undefined) = > 100 µM
COC(=O)c1cc(NC(=O)Cn2c3ccccc3c3ccccc32)cn1C = > 100 µM
Clc1ccc(Nc2nnc(COc3ccccc3)c3ccccc23)cc1 = 6.75 µM

Q. Look up TGI with HCT-15 colon for this compound: COc1ccc(C2CC(=O)Nc3c2c(C)nn3-c2nc3ccccc3[nH]2)cc1OC (centres undefined)
A. > 58.9 µM

Q. Request: NS(=O)(=O)c1ccc(NC(=O)Nc2cccc3ccccc23)cc1
A. > 100 µM

Q. Request: Cc1c(-c2c(F)cc(C(N)=O)c3[nH]c4c(c23)CC[C@H](C(C)(C)O)C4)cccc1-n1c(=O)c2cccc(F)c2n(C)c1=O
A. > 100 µM

Q. Now the same for Nc1[nH]c(=S)[nH]c(=O)c1N=Nc1c(Br)cc(S(N)(=O)=O)cc1Br
A. > 100 µM

Q. Cool, now COc1ccc2nc3c(nc2c1)C(C)(C)C=C3c1ccc(Br)cc1
A. > 100 µM

Q. Repeat with COc1ccc(/C=N/NC(=O)NCCNCCO)cc1
A. > 100 µM

====

# System: HS 578T breast
# assay.details: NCI tumour cell line growth inhibition, 48 h
readout.label: TGI (µM)
Express your answer in µM, writing the number without its unit.

Example molecules with recorded TGI:
Nc1nc(N)c2c(n1)NC(c1ccc(Cl)cc1)C1CCc3ccccc3C1=N2 (configuration not stated) = 50.3
c1ccc2cc(Cn3c(-c4cccc5ccccc45)[n+](Cc4ccc5ccccc5c4)c4c5ccccc5c5ccccc5c43)ccc2c1 = 2.45
CCCN1CCN(c2ccc3nc(-c4ccc5nc(-c6ccc(OCC)cc6)[nH]c5c4)[nH]c3c2)CC1 = 50.1

// switching to the query molecule
Q. Requested read-out: TGI. Entry: Cc1cccc(N=Nc2ccc(O)c(CN(C)C)c2)c1
A. 44.9

====

Below is a list of entries, each paired with its recorded TGI value.
# System: SW-620 colon
# assay.details: NCI tumour cell line growth inhibition, 48 h

Q. Look up TGI with SW-620 colon for this compound: Cc1ccc(C2=C(c3ccccc3)C(O)(c3ccccc3)C(c3ccccc3)=C2c2ccc(C)cc2)cc1
A. > 100 µM

Q. Do the same for C=C1C(O)C2OC(=O)C(=C)C2C(OC(=O)/C(C)=C/C)CC2(C)OC2C2OC12 (stereo not drawn) please
A. > 100 µM

Q. Then this compound: COc1ccc(/C=N/NC(=O)NCCNCCO)cc1
A. > 100 µM

Q. Then CC(=O)OC1CC[C@@]2(C)C(=CC[C@@H]3[C@@H]2CC[C@]2(C)Nc4c(cnn4-c4ccc(F)cc4)C[C@@H]32)C1 (stereo partly drawn) ?
A. > 100 µM

Q. Try this compound next: COc1cc(/C=[N+](\[O-])c2ccccc2Cl)ccc1OC(=S)S
A. > 100 µM

====

# Test system: CCRF-CEM leukemia
# assay.details: NCI tumour cell line growth inhibition, 48 h
Recorded TGI values for a group of compounds are listed next.

In the examples that follow, each entry is paired with its recorded TGI.
CC1=NN(c2ccccc2)C(=O)C1N=Nc1ccc(Br)cc1C (stereo not drawn) = > 100 µM
C#CCN(Cc1ccc2nc(-c3ccccc3)c(Cl)nc2c1)c1ccc(Cl)c(Cl)c1 = > 100 µM

Next:
Q. Enter reported TGI observed with CCRF-CEM leukemia for COc1ccc(C2=Nn3c(nc4sc5c(c4c3=O)CCCC5)SC2)cc1
A. > 100 µM
